// data source = ChEMBL document CHEMBL1125249

A short record of ID50 observed with Adrenergic receptor alpha-2 (Rattus norvegicus) (UniProt P22086+P19328+P22909) follows.
reported metric: ID50 (mg/kg)

In [3]: df
Out[3]:
                            molecule_smiles  observed_result
0  COc1ccc2c(c1)CCN1C[C@H]3CCCN(S(=O)(=O)CC(C)C)[C@H]3C[C@@H]21            0.022
1  CS(=O)(=O)N1CCC[C@@H]2CN3CCc4cc5c(cc4[C@@H]3C[C@@H]21)OCCO5             0.13
2  CC(C)CS(=O)(=O)N1CCC[C@@H]2CN3CCc4ccccc4[C@@H]3C[C@@H]21            0.034

[A] COC(=O)[C@@H]1[C@H]2C[C@H]3c4[nH]c5ccccc5c4CCN3C[C@@H]2CC[C@@H]1O
[B] COc1ccc2c(c1)CCN1C[C@H]3CCCN(S(=O)(=O)N(C)C)[C@@H]3C[C@@H]21
[C] COCCS(=O)(=O)N1CCC[C@@H]2CN3CCc4cc(OC)ccc4[C@@H]3C[C@@H]21
Request: Could you please sort these 3 entries by ID50 from high to low? Please write the labels in the order that was asked for.
Result: A, C, B
